Recorded values, source patent US10130693B2.

Tested on: HLA-A*24
Experiment: MHC binding assay, UV-ligand exchange with beta2m ELISA (exchange yield), HLA-A*24
Design: species or system human
Details: binding to HLA-A*24, UV-ligand exchange
Excerpt: Candidate peptides for T cell based therapies according to the present invention were further tested for their MHC binding capacity (affinity). The individual peptide-MHC complexes were produced by UV-ligand exchange, where a UV-sensitive peptide is cleaved upon UV-irradiation, and exchanged with the peptide of interest as analyzed. Only peptide candidates that can effectively bind and stabilize the peptide-receptive MHC molecules prevent dissociation of the MHC complexes. […]
READOUT TYPE: Peptide exchange (MHC class I binding score, peptide exchange yield)

SUBSTANCE	SYSTEM UNDER TEST	RECORDED VALUE
132 (RYPALFPVL; listed as Homo sapiens) [compound 132]	HLA-A*24	++++ (>=75% = ++++)
319 (KYSDVKNLI; listed as Homo sapiens) [compound 319]	HLA-A*24	++++ (>=75% = ++++)
167 (RYGFYYVEF; listed as Homo sapiens) [compound 167]	HLA-A*24	+++ (50%-75% = +++)
169 (NYITGKGDVF; listed as Homo sapiens) [compound 169]	HLA-A*24	+++ (50%-75% = +++)
187 (AYAANVHYL; listed as Homo sapiens) [compound 187]	HLA-A*24	++++ (>=75% = ++++)

Fill in reported Peptide exchange (MHC class I binding score, peptide exchange yield) for this entry: 341 (SYLTQHQRI; listed as Homo sapiens) [compound 341] +++ (50%-75% = +++)

Give the measured Peptide exchange (MHC class I binding score, peptide exchange yield) for 144 (VFASLPGFLF; listed as Homo sapiens) [compound 144] ++++ (>=75% = ++++)

Indicate its recorded Peptide exchange (MHC class I binding score, peptide exchange yield); the substance in question is 313 (KYTHFIQSF; listed as Homo sapiens) [compound 313] ++++ (>=75% = ++++)

====

Molecular target: HLA-A*02:01 (Homo sapiens, UniProt P04439, D140Y/D185E/D98H/E176V/E277Q/G131W/G231S/I119V/I121R/I166T/I218V/L300P/L318F/N151K/N90K/P208A/P217A/Q86G/Q94H/R138H/R169H/T345S)
Assay: MHC binding assay, UV-ligand exchange with beta2m ELISA (exchange yield), HLA-A*02
Conditions: binding to HLA-A*02 ranged by peptide exchange yield
READOUT TYPE: Peptide exchange (MHC class I binding score)

Solved entries:
SUBSTANCE	RECORDED VALUE
48 (TLDHKPVTV; listed as Homo sapiens) [compound 48]	++ (20%-49% = ++)
323 (ILSVVNSQL; listed as Homo sapiens) [compound 323]	+++ (50%-75% = +++)
78 (LLWGHPRVA; listed as Homo sapiens) [compound 78]	+++ (50%-75% = +++)
72 (GMIGFQVLL; listed as Homo sapiens) [compound 72]	+++ (50%-75% = +++)
19 (TLLPTVLTL; listed as Homo sapiens) [compound 19]	+++ (50%-75% = +++)
75 (ILDNVKNLL; listed as Homo sapiens) [compound 75]	+++ (50%-75% = +++)

Tell me Peptide exchange (MHC class I binding score) reported for 74 (ILDETLENV; listed as Homo sapiens) [compound 74] ++ (20%-49% = ++)

Provide one value: measured Peptide exchange (MHC class I binding score) of 93 (SLLTQPIFL; listed as Homo sapiens) [compound 93] +++ (50%-75% = +++)
